- Tested on: carrageenin-induced paw edema
- assay protocol: Inhibitory actions on carrageenin-induced paw edema in rats
- Assay type: in vivo
- settings: Rattus norvegicus, po; 30 mg/kg orally, 60 min before carrageenin; male Wistar rats; 3 hours after induction, vs control group; read-out: Inhibition rate
- Protocol: Using, as test animals, male rats of Wistar strain each weighing approximately 150g, 0.1 ml of 1% x-carrageenin was subcutaneously injected into the paw of each rat to induce the reaction. Since then, the volume of paw edema was measured with the lapse of time. Each compound indicated in the following Table was orally administered to the rats 60 minutes before the induction of the reaction. […]
reported property: inhibition in vivo at 30 mg/kg (%)

compound: O=C(O)c1c(-c2ccc(Cl)cc2)c(-c2ccc(Cl)cc2)n2c1C(C(=O)O)CC2 (stereo not shown) [Example 3]
numeric result: 44.7
//
compound: COc1ccc(-c2c(-c3ccc(Cl)cc3)cc3n2CCC3C(=O)O)cc1 (racemic) [Example 40]
numeric result: 48.2
//
compound: CN1CCN(NC(=O)C2CCn3c2cc(-c2ccc(Cl)cc2)c3-c2ccc(Cl)cc2)CC1 (racemic) [Example 59]
numeric result: 30.5
//
compound: O=C(NCCCN1CCOCC1)C1CCn2c1cc(-c1ccc(Cl)cc1)c2-c1ccc(Cl)cc1 (racemic) [Example 57]
numeric result: 31.9

---

- Test system: carrageenin-induced paw edema
- assay protocol: Inhibitory actions on carrageenin-induced paw edema in rats
- Assay type: in vivo
- settings: Rattus norvegicus, po; 30 mg/kg orally, 60 min before carrageenin; male Wistar rats; 3 hours after induction, vs control group; read-out: Inhibition rate

compound: CC(C)OC(=O)C1CCn2c(-c3ccc(F)cc3)c(-c3ccc(F)cc3)c(C(=O)O)c21 (racemic)
value units: %
inhibition in vivo at 30 mg/kg: 30.1
//
compound: O=C(Nc1ccccc1)C1CCn2c1cc(-c1ccc(Cl)cc1)c2-c1ccc(Cl)cc1 (racemic)
value units: %
inhibition in vivo at 30 mg/kg: 37.4
//
compound: O=C(NC1CCCCC1)C1CCn2c1cc(-c1ccc(Cl)cc1)c2-c1ccc(Cl)cc1 (racemic)
value units: %
inhibition in vivo at 30 mg/kg: 40.2
//
compound: O=C(Nc1ccccn1)C1CCn2c1cc(-c1ccc(Cl)cc1)c2-c1ccc(Cl)cc1 (racemic)
value units: %
inhibition in vivo at 30 mg/kg: 39.4

---

inhibition at 30 µM reference
- Test system: arachidonic acid aggregation
- assay protocol: Inhibitory actions on blood platelet aggregation induced by arachidonic acid (Born's nephelometry, platelet rich plasma)
- Type: cell-based
- settings: Oryctolagus cuniculus, Platelet; final concentration 30 µM; arachidonic acid (350µM); rabbit PRP; read-out: Inhibiting rate
reported property: inhibition at 30 µM

compound: O=C(NC1CCCCC1)C1CCn2c1cc(-c1ccc(Cl)cc1)c2-c1ccc(Cl)cc1 (racemic)
reported property: inhibition at 30 µM
result: 91.9%
--
compound: O=C(C1CCn2c1cc(-c1ccc(Cl)cc1)c2-c1ccc(Cl)cc1)N1CCOCC1 (racemic)
reported property: inhibition at 30 µM
result: 91.4%
--
compound: O=C(NCc1ccccc1)C1CCn2c1cc(-c1ccc(Cl)cc1)c2-c1ccc(Cl)cc1 (racemic)
reported property: inhibition at 30 µM
result: 91%
--
compound: O=C(Nc1ccc(Cl)cc1)C1CCn2c1cc(-c1ccc(Cl)cc1)c2-c1ccc(Cl)cc1 (racemic)
reported property: inhibition at 30 µM
result: 89.4%
